B1: LINE1-mini (parent)
chain: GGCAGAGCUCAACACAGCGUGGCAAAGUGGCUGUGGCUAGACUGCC

- Variants of: B1
- assay_explanation: self-cleavage, relative activity (ratio to wild type); higher = more cleavage; in vitro, sequencing; the parent is a self-cleaving ribozyme

[
  {
    "mutation_string": "A25C A41U",
    "self-cleavage": 0.52
  },
  {
    "mutation_string": "C18G C31U",
    "self-cleavage": 0.02
  },
  {
    "mutation_string": "U28G G36A",
    "self-cleavage": 0.12
  },
  {
    "mutation_string": "C18U G22C",
    "self-cleavage": 1.47
  },
  {
    "mutation_string": "C23G A26U",
    "self-cleavage": 1.62
  },
  {
    "mutation_string": "G2C A14U",
    "self-cleavage": 0.08
  },
  {
    "mutation_string": "G7A C13G",
    "self-cleavage": 0.26
  },
  {
    "mutation_string": "A6U A12G",
    "self-cleavage": 0.04
  },
  {
    "mutation_string": "G7A",
    "self-cleavage": 0.2
  },
  {
    "mutation_string": "A14G U34C",
    "self-cleavage": 0.61
  },
  {
    "mutation_string": "G7A G21A",
    "self-cleavage": 0.34
  },
  {
    "mutation_string": "C10G G21C",
    "self-cleavage": 0.07
  },
  {
    "mutation_string": "C18G",
    "self-cleavage": 0.52
  },
  {
    "mutation_string": "G5C C37U",
    "self-cleavage": 0.09
  },
  {
    "mutation_string": "A16G G21A",
    "self-cleavage": 0.7
  },
  {
    "mutation_string": "C15U G27U",
    "self-cleavage": 1.36
  },
  {
    "mutation_string": "G1C G19A",
    "self-cleavage": 0.11
  },
  {
    "mutation_string": "C8A U28A",
    "self-cleavage": 0.17
  },
  {
    "mutation_string": "G2U U34A",
    "self-cleavage": 0.04
  },
  {
    "mutation_string": "A6U A11G",
    "self-cleavage": 0.04
  },
  {
    "mutation_string": "U20G G29C",
    "self-cleavage": 0.35
  },
  {
    "mutation_string": "G7A A14U",
    "self-cleavage": 0.16
  },
  {
    "mutation_string": "U38G G44C",
    "self-cleavage": 0.06
  },
  {
    "mutation_string": "A6G G44U",
    "self-cleavage": 0.13
  },
  {
    "mutation_string": "U32A U38G",
    "self-cleavage": 0.02
  },
  {
    "mutation_string": "U34A C37A",
    "self-cleavage": 0.08
  },
  {
    "mutation_string": "A4G C8A",
    "self-cleavage": 0.32
  },
  {
    "mutation_string": "A4C C45G",
    "self-cleavage": 0.17
  },
  {
    "mutation_string": "G7U U20A",
    "self-cleavage": 0.06
  },
  {
    "mutation_string": "C31A C46U",
    "self-cleavage": 0.11
  },
  {
    "mutation_string": "A24G G40U",
    "self-cleavage": 0.16
  },
  {
    "mutation_string": "G2A G27U",
    "self-cleavage": 0.75
  },
  {
    "mutation_string": "U9G C37A",
    "self-cleavage": 0.22
  },
  {
    "mutation_string": "G22U A25U",
    "self-cleavage": 1.49
  },
  {
    "mutation_string": "C15A G40C",
    "self-cleavage": 0.07
  },
  {
    "mutation_string": "C23U G29A",
    "self-cleavage": 1.11
  },
  {
    "mutation_string": "G36C C45U",
    "self-cleavage": 0.29
  },
  {
    "mutation_string": "U9C G33C",
    "self-cleavage": 0.03
  },
  {
    "mutation_string": "C37G A41U",
    "self-cleavage": 0.03
  },
  {
    "mutation_string": "G19C U43C",
    "self-cleavage": 0.03
  },
  {
    "mutation_string": "G7C C23G",
    "self-cleavage": 0.1
  },
  {
    "mutation_string": "A11U C37A",
    "self-cleavage": 0.02
  },
  {
    "mutation_string": "U20G C46G",
    "self-cleavage": 0.45
  },
  {
    "mutation_string": "C10A A41G",
    "self-cleavage": 0.03
  },
  {
    "mutation_string": "G2C G29U",
    "self-cleavage": 0.19
  },
  {
    "mutation_string": "A26G G44C",
    "self-cleavage": 0.28
  },
  {
    "mutation_string": "G33C G35U",
    "self-cleavage": 0.04
  },
  {
    "mutation_string": "G7C C23U",
    "self-cleavage": 0.1
  },
  {
    "mutation_string": "G30A U38C",
    "self-cleavage": 0.64
  },
  {
    "mutation_string": "G21U C46G",
    "self-cleavage": 1.29
  },
  {
    "mutation_string": "A11C U20C",
    "self-cleavage": 0.02
  },
  {
    "mutation_string": "G19C C23U",
    "self-cleavage": 0.83
  },
  {
    "mutation_string": "G2A A39G",
    "self-cleavage": 0.22
  },
  {
    "mutation_string": "A12G A24U",
    "self-cleavage": 0.03
  },
  {
    "mutation_string": "C10G C23U",
    "self-cleavage": 0.09
  },
  {
    "mutation_string": "G21A G40U",
    "self-cleavage": 0.19
  },
  {
    "mutation_string": "C42A U43G",
    "self-cleavage": 0.07
  },
  {
    "mutation_string": "U34A G35A",
    "self-cleavage": 0.07
  },
  {
    "mutation_string": "A24G C31U",
    "self-cleavage": 0.29
  },
  {
    "mutation_string": "G35C C37U",
    "self-cleavage": 0.03
  },
  {
    "mutation_string": "G17U U43A",
    "self-cleavage": 0.09
  },
  {
    "mutation_string": "C10U A16G",
    "self-cleavage": 0.19
  },
  {
    "mutation_string": "A4G C45U",
    "self-cleavage": 0.6
  },
  {
    "mutation_string": "C8A G40A",
    "self-cleavage": 0.27
  },
  {
    "mutation_string": "G27C G36U",
    "self-cleavage": 0.05
  },
  {
    "mutation_string": "G17C C37G",
    "self-cleavage": 0.04
  },
  {
    "mutation_string": "G21A G36C",
    "self-cleavage": 0.1
  },
  {
    "mutation_string": "C3G A14C",
    "self-cleavage": 0.06
  },
  {
    "mutation_string": "C3A G7U",
    "self-cleavage": 0.4
  },
  {
    "mutation_string": "G1U G17U",
    "self-cleavage": 0.06
  }
]
